Hey, just so you know, these numbers are from patent US4018925A.

# assayRemarks: Stability of N-chloramines in aqueous solution (half-life, iodometric and/or spectrophotometric)
# Format: physicochemical
# experimentalConditions: 0.1M NaOAc pH 4.6; temperature 40
Each entry below lists one item and its recorded half-life value.
quantityName: half-life (days)

>>> reading("CC1(C)C(=O)N(Cl)C(C)(C)C(=O)N1Cl")
128
>>> reading("O=C1CN(Cl)C(=O)CN1Cl [1,4-dichloro-2,5-piperazinedione, reference compound]")
0.646
